# Test system: CP269
# Method: qHTS profiling for inhibitors of Plasmodium falciparum proliferation (AID 504749); also: nearly all actives have a fitted effect of over 60% in size
# Details: P. falciparum in erythrocytes, SYBR Green DNA, 72 h; series mostly up to 28.7 µM
Inconclusive results are not listed. The source made the active and inactive calls. Calls follow the shape of the dose curve; as a rule, active = well fitted inhibition curve with a large enough effect; inconclusive = small, poorly fitted or top-dose-only effect; inactive = flat fitted curve, though single readings scatter.
The categories you may choose from are 1.0 for active, 0.0 for inactive

Some solved cases for reference:
CCCCCCCCCCCCCCCCOP(=O)([O-])OCC[N+](C)(C)C    0.0
COc1ccc(CCN2CCC(Nc3nc4ccccc4n3Cc3ccc(F)cc3)CC2)cc1    1.0
CC/C(=C(/CC)c1ccc(O)cc1)c1ccc(O)cc1    0.0
O=C(OCCOCCO)c1ccccc1Nc1cccc(C(F)(F)F)c1    0.0
O=C(O)c1cc2cc(Cc3cccnc3)ccc2o1    0.0

State the result this test recorded for CCCCC(CC)CN=C(N)NC(N)=NCCCCCCN=C(N)NC(N)=NCC(CC)CCCC (stereo unspecified) .
1.0

State the result this test recorded for "CC(C)(C)CC(C)(C)c1ccc(O)c(Cc2ccc(Cl)cc2Cl)c1" .
1.0

State the result this test recorded for "CCOC(=O)/C=C(C)/C=C/C=C(C)/C=C/c1c(C)cc(OC)c(C)c1C" .
0.0
